Data origin, for the record: patent US7678787B2

Readout: melting point

Some compounds with known melting point results, for comparison:
# Chemical string, Observed value
rows = [
    ("CC(C)(C)CC(=O)N1Cc2ccc(C(=O)NCc3cccnc3)n2Cc2ccccc21", "103 to 107 °C"),
    ("CC(C)(C)c1ccc(OCC(=O)N2Cc3ccc(C(=O)NCc4cccnc4)n3Cc3ccccc32)cc1", "85 °C"),
    ("O=C(NCc1cccnc1)c1ccc2n1Cc1ccccc1N(C(=O)c1c(F)cccc1F)C2", "103 to 109 °C"),
]

Would you kindly look at the next entry?
Notebook: `O=C(NCc1cccnc1)c1ccc2n1Cc1ccccc1N(C(=O)c1ccc3c(c1)OCO3)C2` , melting point read as 169 to 171 °C

----------
- System tested: human FSH receptor (Homo sapiens, UniProt P23945)
- Protocol description: FSH receptor-dependent CRE-luciferase reporter gene assay (CHO FSH-R 6CRE-Luc cells)
- Run parameters: dose-response format in presence of EC50 of purified human FSH; * n=3, ** n=2 averages
Readout: IC50 (µM)
Please respond with the number in µM and leave the unit unwritten.

Some compounds with known IC50 results, for comparison:
# Chemical string, IC50 / µM
rows = [
    ("O=C(NCc1cccnc1)c1ccc2n1Cc1ccccc1N(C(=O)c1ccc(-n3cccn3)cc1)C2", 7.99),
    ("COc1cc(C(=O)N2Cc3ccc(C(=O)NCc4cccnc4)n3Cc3ccccc32)ccc1-c1ccccc1C", 1),
]

Would you kindly look at the next entry?
Notebook: `CCCc1ccc(C(=O)N2Cc3ccc(C(=O)NCc4cccnc4)n3Cc3ccccc32)cc1` , IC50 read as 4.96

----------
Entries and their IC50
- System tested: UniProtKB P23945
- Sequence (P23945 18-695): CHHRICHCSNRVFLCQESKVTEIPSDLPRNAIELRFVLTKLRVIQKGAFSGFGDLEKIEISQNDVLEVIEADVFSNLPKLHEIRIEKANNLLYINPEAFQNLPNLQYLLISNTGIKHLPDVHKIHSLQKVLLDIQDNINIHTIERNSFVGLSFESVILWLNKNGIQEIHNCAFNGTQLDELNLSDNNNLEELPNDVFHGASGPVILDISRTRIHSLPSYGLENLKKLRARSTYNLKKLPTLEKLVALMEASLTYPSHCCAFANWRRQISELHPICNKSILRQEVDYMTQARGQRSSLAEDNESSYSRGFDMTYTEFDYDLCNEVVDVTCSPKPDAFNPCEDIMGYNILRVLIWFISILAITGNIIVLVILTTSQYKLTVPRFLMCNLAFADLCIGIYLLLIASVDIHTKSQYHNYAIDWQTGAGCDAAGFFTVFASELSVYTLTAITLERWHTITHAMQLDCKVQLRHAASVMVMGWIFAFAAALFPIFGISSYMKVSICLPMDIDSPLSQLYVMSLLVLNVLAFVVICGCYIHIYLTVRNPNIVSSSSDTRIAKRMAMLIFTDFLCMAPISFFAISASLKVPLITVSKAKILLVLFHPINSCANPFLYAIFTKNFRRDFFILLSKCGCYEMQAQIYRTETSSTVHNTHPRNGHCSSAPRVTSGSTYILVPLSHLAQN
- Protocol description: FSH receptor-dependent CRE-luciferase reporter gene assay (CHO FSH-R 6CRE-Luc cells)
- Run parameters: dose-response format in presence of EC50 of purified human FSH; * n=3, ** n=2 averages

# Compound, IC50
measured = [
    ("COC(=O)Cc1ccccc1-c1ccc(C(=O)N2Cc3ccc(C(=O)NCc4cccnc4)n3Cc3ccccc32)cc1", "0.156 µM"),
    ("O=C(NCc1cccnc1)c1ccc2n1Cc1ccccc1N(C(=O)c1ccccn1)C2", "> 30 µM"),
    ("Cc1ccccc1-c1ccc(C(=O)N2Cc3ccc(C(=O)NCc4ccc[n+]([O-])c4)n3Cc3ccccc32)cc1C", "0.95 µM"),
    ("CC(C)C(O)c1ccccc1-c1ccc(C(=O)N2Cc3ccc(C(=O)NCc4cccnc4)n3Cc3ccccc32)cc1 (centres unmarked)", "1.64 µM"),
    ("Cc1ccc(-c2ccc(C(=O)N3Cc4ccc(C(=O)NCc5cccnc5)n4Cc4ccccc43)cc2C)cc1", "15 µM"),
    ("Cc1cccc(C)c1-c1ccc(C(=O)N2Cc3ccc(C(=O)NCc4cccnc4)n3Cc3ccccc32)cc1", "16.4 µM"),
    ("O=C(NCc1cccnc1)c1ccc2n1Cc1ccccc1N(C(=O)c1ccc(-c3ccccc3Cc3nnn[nH]3)cc1)C2", "2.4 µM"),
    ("O=C(NCc1cccnc1)c1ccc2n1Cc1ccccc1N(C(=O)c1ccc(N3CCCCC3)cc1)C2", "8.84 µM"),
]

Notebook: `CCCCNc1ccc(C(=O)N2Cc3ccc(C(=O)NCc4cccnc4)n3Cc3ccccc32)cn1` , IC50 read as 14.5 µM

Notebook: `O=C(O)c1ccccc1-c1ccc(C(=O)N2Cc3ccc(C(=O)NCc4cccnc4)n3Cc3ccccc32)cc1` , IC50 read as > 30 µM

Notebook: `O=C(NCc1cccnc1)c1ccc2n1Cc1ccccc1N(C(=O)c1ccc(-c3ccccc3CO)cc1)C2` , IC50 read as 0.1 µM

Notebook: `COc1ccc(C(=O)N2Cc3ccc(C(=O)NCc4cccnc4)n3Cc3ccccc32)cc1` , IC50 read as 12.2 µM

Notebook: `O=C(NCc1cccnc1)c1ccc2n1Cc1ccccc1N(C(=O)c1ccc(NCCc3ccccc3)nc1)C2` , IC50 read as 18.7 µM

Notebook: `Cc1ccccc1-c1ccc(C(=O)N2Cc3ccc(C(=O)NCc4cccnc4)n3Cc3ccccc32)cc1` , IC50 read as 2 µM

Notebook: `O=C(NCc1cccnc1)c1ccc2n1Cc1ccccc1N(Cc1ccc(-c3ccccc3)cc1)C2` , IC50 read as 2 µM
